assayedTarget: UniProt P0DTD1
protocolConditions: 20.0 µM
Collected inhibition values appear next to each entry.

| molecule | inhibition, % |
| --- | --- |
| O=C(Cc1c[nH]c2ncccc12)NCc1cccc(Cl)c1 | 1.98 |
| C=CC(=O)N(c1ccc(C(C)(C)C)cc1)C(C(=O)NC1CCOCC1)c1cccnc1 (centres undefined) | 0.841 |
| O=C(Nc1ccc([N+](=O)[O-])cc1Cl)c1cccc(Cl)c1 | 1.31 |
| O=C(C1CCN(c2ccncc2)CC1)N1CCOCC1 | 0 |
| O=C(CCl)N1CCN(S(=O)(=O)c2cccs2)CC1 | 97.9 |
| N#Cc1ncccc1NC(=O)Cc1cccc(Cl)c1 | 0 |
| C=CC(=O)N1CCCN(Cc2ccccc2)CC1 | 0 |
| CCSCC1CCN(c2ccc(S(N)(=O)=O)cc2)CC1 | 26 |
| O=C(Cc1cncnc1)Nc1cccc(CCCc2ccccc2)c1 | 0 |
| Cc1cccc(NC(=O)C(C#N)C(=O)CC(C)C)c1 (centres undefined) | 0 |
| NS(=O)(=O)c1ccc(C(=O)N2Cc3ccccc3C(c3ccccc3)C2)cc1 (centres undefined) | 0 |
| C=CC(=O)N(c1ccc(SC)cc1)C(C(=O)Nc1ccc(OC)cc1C)c1cccnc1 (centres undefined) | 0 |
| C=CC(=O)N(c1cc(C(C)(C)C)on1)C(C(=O)Nc1ccc(OC)cc1C)c1cccnc1 (centres undefined) | 14.3 |
| O=C(C1CCN(c2ccncc2)CC1)N1CCCCC1 | 0 |
| CC(C)N(C)CC1CCN(c2ccc(S(N)(=O)=O)cc2)CC1 | 0 |
| C=CC(=O)N(c1ccc(C(C)(C)CC)cc1)C(C(=O)Nc1cccc(F)c1C)c1cccnc1 (centres undefined) | 3.79 |
| Cc1coc(NC(=O)Nc2cccnc2)n1 | 2.76 |
| CC1CN(Cc2ccccc2NC(=O)NCc2cnsc2)CC(C)O1 (centres undefined) | 0 |
| O=C(CC(=O)N1CCOCC1)NCc1ccccc1 | 0 |
| O=C(Nc1cccnc1)Nc1ccc(Cl)s1 | 0 |
| CN1CCC(C(=O)NC2CCCCC2NC(=O)C2CCCCC2)CC1 (centres undefined) | 0 |
| CC(NC(=O)c1ccccc1OCC(N)=O)c1cnn(C)c1 (centres undefined) | 0 |
| C=CC(=O)N(c1cc(C)cc(N)c1)C(C(=O)NC(C)(C)C)c1cccnc1 (centres undefined) | 0 |
| O=C(Nc1ccc([N+](=O)[O-])cc1)c1cc(Cl)ccc1O | 2.8 |

* * *

assayedTarget: SARS-CoV-2 Main Protease (SARS-CoV-2) (UniProt P0DTD1)
protocolConditions: 50.0 µM

| molecule | inhibition (%) |
| --- | --- |
| O=C(Cc1cccc(Cl)c1)Nc1nncs1 | 0 |
| Cc1cccc(-c2nnnn2C2CC2C)c1NC(=O)CCc1cccnc1 (stereo unspecified) | 13.5 |
| O=C(Nc1ccnnc1)NC(Cc1ccccc1)C(=O)N1CCCC1 (stereo unspecified) | 0 |
| C=CC(=O)N(c1ccc(C(C)(C)C)cc1)C(C(=O)NC1CCOCC1)c1cccnc1 (stereo unspecified) | 31.1 |
| CC1CC(C)CN(C(=O)c2ccccc2NC(=O)NCc2ccoc2)C1 (stereo unspecified) | 0 |
| O=C(Nc1nnc(-c2ccccn2)o1)C1CCN(S(=O)(=O)c2ccc(F)cc2)CC1 | 0 |
| O=C(NCC1COc2ccccc2O1)c1cc(=O)[nH]c2ccc(F)cc12 (stereo unspecified) | 16.4 |
| O=C(CCl)N1CC2CC1CN2Cc1cccc(Cl)c1 (stereo unspecified) | 100 |
| Nc1ncc(S(=O)(=O)c2ccc(Cl)cc2)c(N)n1 | 0 |
| C=CC(=O)N(c1ccc(C(C)(C)C)cc1)C(C(=O)NC1CCC1)c1cccnc1 (stereo unspecified) | 51.9 |
| CN1CCN(C(=O)CNc2c(S(N)(=O)=O)ccc3ccccc23)CC1 | 0 |

* * *

Collected inhibition values appear next to each entry.
assayedTarget: UniProt P0DTD1
protocolConditions: 50.0 µM
propertyName: inhibition

| compound | result |
| --- | --- |
| Cc1[nH]c2ncnc(NC(=O)c3cc4ccccc4c(=O)o3)c2c1C | -4.98% |
| CC(C)N(C(=O)Cc1c(O)c2ccccc2[nH]c1=O)C(C)C | -0.251% |
| C/C=C/C(=O)Nc1cccc(OC2CC(=O)N2)c1 (stereo unspecified) | 4.68% |
| C=CC(=O)N(c1ccc(C(C)(C)C)cc1)C(C(=O)Nc1ccc2c(c1)OCCO2)c1cccnc1 (stereo unspecified) | 18.1% |
| O=C(Nc1cccc(C(F)(F)F)c1)Nc1ccccc1Sc1ncc([N+](=O)[O-])s1 | 76.3% |
| O=C(CCl)N1CCN(Cc2ccsc2)CC1 | 99.4% |

* * *

assayedTarget: SARS-CoV-2 Main Protease (SARS-CoV-2) (UniProt P0DTD1)

| compound | assayedTarget | IC50, µM |
| --- | --- | --- |
| N#Cc1cccc(CN2C(=O)C(=O)c3cccc(Br)c32)c1 | SARS-CoV-2 Main Protease (SARS-CoV-2) (UniProt P0DTD1) | 0.017 |
| N#Cc1cnn(C(=O)c2cccs2)c1C1CC1 | SARS-CoV-2 Main Protease (SARS-CoV-2) (UniProt P0DTD1) | 0.363 |
| N#Cc1cccc(CN2CCN(C(=O)CCl)CC2)c1 | SARS-CoV-2 Main Protease (SARS-CoV-2) (UniProt P0DTD1) | 12.2 |
| Cc1ccc(NC2=C(c3ccccc3)C(=O)N(Cc3cccnc3)C2=O)cc1C | SARS-CoV-2 Main Protease (SARS-CoV-2) (UniProt P0DTD1) | 43.5 |
| N#Cc1cc(CN2CCN(C(=O)CCl)CC2)c2ccccc2c1 | SARS-CoV-2 Main Protease (SARS-CoV-2) (UniProt P0DTD1) | 1.16 |
| COc1ccc(CN2C(=O)C(=O)c3cc(Br)cc(C)c32)cc1OC | SARS-CoV-2 Main Protease (SARS-CoV-2) (UniProt P0DTD1) | 1.23 |
| CCCC(C(=O)Nc1cnccc1C)c1cccc(Cl)c1 (stereo not given) | SARS-CoV-2 Main Protease (SARS-CoV-2) (UniProt P0DTD1) | 5.48 |
| COc1ccccc1OCCNC(=O)c1cc(=O)[nH]c2ccccc12 | SARS-CoV-2 Main Protease (SARS-CoV-2) (UniProt P0DTD1) | 3.46 |
| Cc1c(N)cncc1NC(=O)Cc1cccc(Cl)c1 | SARS-CoV-2 Main Protease (SARS-CoV-2) (UniProt P0DTD1) | 8.2 |
| N#Cc1ccccc1NC(=O)[C@@H](c1ccccc1)N1Cc2ccccc2C1=O (stereo in doubt) | SARS-CoV-2 Main Protease (SARS-CoV-2) (UniProt P0DTD1) | 57.9 |
| O=C(Cc1cccc(Cl)c1)Nc1cnccc1C1CC1 | SARS-CoV-2 Main Protease (SARS-CoV-2) (UniProt P0DTD1) | 7.4 |
| Nc1nn(C(=O)C2CCOc3ccc(Cl)cc32)c2ccncc12 (stereo not given) | SARS-CoV-2 Main Protease (SARS-CoV-2) (UniProt P0DTD1) | 95.2 |
| COc1cc(Cl)cc(CC(=O)Nc2cnccc2C)c1 | SARS-CoV-2 Main Protease (SARS-CoV-2) (UniProt P0DTD1) | 43.6 |
| O=C(Cn1nnc2ccccc21)Nc1cccc(Cl)c1 | SARS-CoV-2 Main Protease (SARS-CoV-2) (UniProt P0DTD1) | 29.4 |
| Cc1ccncc1N1CCC(c2cccc(Cl)c2)S1(=O)=O (stereo not given) | SARS-CoV-2 Main Protease (SARS-CoV-2) (UniProt P0DTD1) | 68.2 |
| C=CC(=O)N(c1ccc(C(F)(F)F)cc1)C(C(=O)NCCc1cccc(F)c1)c1cncc(Cl)c1 (stereo not given) | SARS-CoV-2 Main Protease (SARS-CoV-2) (UniProt P0DTD1) | 4.84 |
| O=C(c1cc(=O)[nH]c2ccccc12)N1CCN(c2cccc(Cl)c2)C(=O)C1 | SARS-CoV-2 Main Protease (SARS-CoV-2) (UniProt P0DTD1) | 9.61 |
| CCOC(=O)c1cc(-c2ccccc2)sc1NC(=O)Cc1csc(-c2ccccc2)n1 | SARS-CoV-2 Main Protease (SARS-CoV-2) (UniProt P0DTD1) | 2.69 |
| COc1cc(Cl)cc2c1OCC[C@@H]2C(=O)Nc1cncc2ccccc12 (stereo in doubt) | SARS-CoV-2 Main Protease (SARS-CoV-2) (UniProt P0DTD1) | 10.2 |
| CCCCN1C(=O)C(=O)c2cc(Br)cc(C)c21 | SARS-CoV-2 Main Protease (SARS-CoV-2) (UniProt P0DTD1) | 57.6 |
| O=C(Nc1cc(=O)[nH]c2ccccc12)C1CCOc2ccc(Cl)cc21 (stereo not given) | SARS-CoV-2 Main Protease (SARS-CoV-2) (UniProt P0DTD1) | 48 |
| Cc1ccc(NC2=C(c3ccccc3)C(=O)N(Cc3cccnc3)C2=O)cc1Cl | SARS-CoV-2 Main Protease (SARS-CoV-2) (UniProt P0DTD1) | 32.2 |
| Cc1ccc(CN2CCC(CNC(=O)Nc3cn(CC(C)C)c(=O)c4ccccc34)C2)cc1 (stereo not given) | SARS-CoV-2 Main Protease (SARS-CoV-2) (UniProt P0DTD1) | 92.3 |
| O=C(Cn1nnc2ccccc21)N(Cc1cccc(Cl)c1)c1ccc(N2CCOCC2)cc1 | SARS-CoV-2 Main Protease (SARS-CoV-2) (UniProt P0DTD1) | 3.79 |
| Cc1noc(COc2cc(Cl)cc(CC(=O)Nc3cnccc3C)c2)n1 | SARS-CoV-2 Main Protease (SARS-CoV-2) (UniProt P0DTD1) | 24.3 |
| O=C(Cc1cc(Cl)cc(OC2CC(=O)N2)c1)Nc1cncc2ccccc12 (stereo not given) | SARS-CoV-2 Main Protease (SARS-CoV-2) (UniProt P0DTD1) | 0.157 |
| Cc1ccncc1NC(=O)Cc1cc(Cl)cc(NC2(C)CCC(F)(F)CC2)c1 | SARS-CoV-2 Main Protease (SARS-CoV-2) (UniProt P0DTD1) | 45.5 |
| O=C(CCl)N1CCN(Cc2cc(Cl)ccc2CNC(=O)N2CCOCC2)CC1 | SARS-CoV-2 Main Protease (SARS-CoV-2) (UniProt P0DTD1) | 5.55 |
| Cc1ccncc1NC(=O)Cc1cc(Cl)cc(S(N)(=O)=O)c1 | SARS-CoV-2 Main Protease (SARS-CoV-2) (UniProt P0DTD1) | 13.1 |
| Cc1ccncc1NC(=O)C[C@H](c1ccccc1)N1CCC(O)CC1 (stereo in doubt) | SARS-CoV-2 Main Protease (SARS-CoV-2) (UniProt P0DTD1) | 67.5 |
| O=C1C(=O)N(Cc2ncon2)c2ccc(Br)cc21 | SARS-CoV-2 Main Protease (SARS-CoV-2) (UniProt P0DTD1) | 3.79 |
| Cc1ccn2cnnc2c1NC(=O)Cc1cccc(Cl)c1 | SARS-CoV-2 Main Protease (SARS-CoV-2) (UniProt P0DTD1) | 83.4 |
| O=C1C(=O)N(Cc2ccccc2)c2ccc([N+](=O)[O-])cc21 | SARS-CoV-2 Main Protease (SARS-CoV-2) (UniProt P0DTD1) | 26.9 |
| COc1ccc2c(NC(=O)Cc3cccc(Cl)c3)[nH]nc2c1 | SARS-CoV-2 Main Protease (SARS-CoV-2) (UniProt P0DTD1) | 52 |
| CNC(=O)c1cc(Cl)cc(CC(=O)Nc2cnccc2C)c1 | SARS-CoV-2 Main Protease (SARS-CoV-2) (UniProt P0DTD1) | 43.9 |
| O=C(Cc1cncc2ccccc12)N(CCC1CCCCC1)c1cccc(Cl)c1 | SARS-CoV-2 Main Protease (SARS-CoV-2) (UniProt P0DTD1) | 1.02 |
| O=C(Cc1cccc(Cl)c1)Nc1cncc2c1CCCC2 | SARS-CoV-2 Main Protease (SARS-CoV-2) (UniProt P0DTD1) | 1.84 |
| O=C(CCl)N1CCN(Cc2cccc(Cl)c2)CC1 | SARS-CoV-2 Main Protease (SARS-CoV-2) (UniProt P0DTD1) | 0.545 |
| O=C(Nc1n[nH]c2ccnc(Br)c12)C1CCOc2ccc(Cl)cc21 (stereo not given) | SARS-CoV-2 Main Protease (SARS-CoV-2) (UniProt P0DTD1) | 74.2 |
| Cc1ccccc1NC(=O)CC1SC(=O)N(c2ccccc2)C1=O (stereo not given) | SARS-CoV-2 Main Protease (SARS-CoV-2) (UniProt P0DTD1) | 0.658 |
| Cc1ccncc1NC(=O)C(CO)c1cccc(Cl)c1 (stereo not given) | SARS-CoV-2 Main Protease (SARS-CoV-2) (UniProt P0DTD1) | 47.3 |
| C=CC(=O)N(c1ccc(C(F)(F)F)cc1)C(C(=O)NCCc1cccc(F)c1)c1cncc(O)c1 (stereo not given) | SARS-CoV-2 Main Protease (SARS-CoV-2) (UniProt P0DTD1) | 17.3 |
| CC(C)(C)c1ccc(N(C(=O)c2cn[nH]c2)C(C(=O)NCCc2cccc(F)c2)c2cccnc2)cc1 (stereo not given) | SARS-CoV-2 Main Protease (SARS-CoV-2) (UniProt P0DTD1) | 4.84 |
| O=C(CCl)N1CCN(Cc2cc(O)cc(Cl)c2)CC1 | SARS-CoV-2 Main Protease (SARS-CoV-2) (UniProt P0DTD1) | 1.57 |
| Cc1ccncc1NC(=O)Cc1cc(Cl)cc(-c2ccc(C)c(F)c2F)c1 | SARS-CoV-2 Main Protease (SARS-CoV-2) (UniProt P0DTD1) | 56.2 |
